Target: Dihydroorotate dehydrogenase (quinone), mitochondrial (Plasmodium falciparum (isolate 3D7))
Assay: PfDHODH enzyme inhibitors, primary screen, biochemical, C-terminal His tag, absorbance 600 nm (AID 1175);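 also: recombinant parasite enzyme with a five histidine tag at its C terminus; test concentration not given here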
Conditions: DCIP absorbance 600 nm, higher = more signal, called active from +8 up or from −8 down
Calls of active or inactive are those of the source.
Quick reference: composite z-score of the listed items.

>  <compound>
CCc1cccc(NC(=O)O[C@H]2[C@H](OC(=O)Nc3ccc4c(c3)OCO4)[C@@H](OC(=O)Nc3ccc4c(c3)OCO4)[C@@H](OC)O[C@@H]2CO)c1

>  <composite z-score>
-0.0004 (inactive)

$$$$
>  <compound>
COc1ccc(COC(=O)NN=C2C[C@@H](O)[C@@H](O)[C@@H]3[C@@H]4C(=O)N(c5ccc(F)cc5F)C(=O)[C@@H]4CC[C@@H]23)cc1

>  <composite z-score>
0.0922 (inactive)

$$$$
>  <compound>
COc1ccc(O[C@H]2C=C[C@@H](c3ccccc3)O[C@@H]2COC(=O)CCC(C)=NOC[C@@H](C)[C@H](OCc2ccccc2)C(C)C)cc1

>  <composite z-score>
-0.926 (inactive)

$$$$
>  <compound>
CCOC(=O)[C@H](Cc1ccccc1)NC(=O)CCC1CC(OC(=O)NCc2ccc3c(c2)OCO3)CC2(CCCC(COC(=O)NCc3ccccc3)O2)O1 (stereo partly specified)

>  <composite z-score>
0.208 (inactive)

$$$$
>  <compound>
C[C@H](c1ccccc1)N1C(=O)[C@H]2[C@@H]3C(=CC[C@H]2C1=O)C(=O)[C@H]1O[C@H]1[C@H]3O

>  <composite z-score>
-1.74 (inactive)

$$$$
>  <compound>
O=C(NN=C1C[C@@H](O)[C@@H](O)[C@@H]2[C@@H]3C(=O)N(c4cccc(Oc5ccccc5)c4)C(=O)[C@@H]3CC[C@@H]12)OCc1ccccc1

>  <composite z-score>
0.351 (inactive)

$$$$

====

Target: Albumin (Bos taurus)
Test: bovine serum albumin binders on microarray, profiling panel, artefact control for SMM control protein annotation, biochemical, small-molecule microarray, Alexa647 label, 635/667 nm fluorescence (AID 1118);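 also: score merges 667 nm emission intensity and signal-to-noise per printed compound spot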
Settings: BSA-A647 binding, fluorescence 635 nm, higher = more signal

>  <compound>
CC(C)CON=C1C[C@@H](O)[C@@H](O)[C@@H]2[C@@H]3C(=O)N([C@@H](C)c4ccccc4)C(=O)[C@@H]3CC[C@H]12

>  <composite z-score>
0.663

$$$$
>  <compound>
COCCCNC(=O)[C@]1(Cc2ccccc2)N=C(c2ccc(OCCCO)cc2)O[C@@H]1c1ccccc1

>  <composite z-score>
0.998

$$$$
>  <compound>
O=C(CS)NCCCCCNC(=O)[C@H]1C[C@H]2C(=O)N3CCC[C@H]3C(=O)N2[C@H]1c1cccc(OCCO)c1

>  <composite z-score>
-1.4

$$$$
>  <compound>
Cc1ccc(S[C@]2(C(=O)O)CC(=O)N(Cc3ccccc3)[C@@H]2c2ccc(CO)cc2I)cc1

>  <composite z-score>
0.258

$$$$
>  <compound>
CO[C@@H]1COC(=O)CC=C[C@@H](C)[C@@H]2C=C[C@H](O)[C@@H](COC(=O)[C@H](C)NC(=O)CC=C[C@H]1C)O2

>  <composite z-score>
-0.107

$$$$
>  <compound>
COc1ccc(O[C@@H]2[C@H](O)CO[C@H]2C=CC#Cc2ccccc2)cc1

>  <composite z-score>
-0.0002

$$$$
>  <compound>
CO[C@@H]1COC(=O)CC=C[C@@H](C)COC(=O)[C@H](COCc2ccccc2)NC(=O)CC=C[C@H]1C

>  <composite z-score>
-1.2

$$$$
>  <compound>
CC(CCN1CCCCc2nc(C)c(C)cc21)=NOC(C)CN1CCCCc2nc(C)c(C)cc21 (stereo not drawn)

>  <composite z-score>
0.845

$$$$

Origin of measurements: PubChem BioAssay
